Here, each record is paired with measured IC50 data.
# SYSTEM: IGF1R (Homo sapiens)
# Sequence (P08069 31-1367): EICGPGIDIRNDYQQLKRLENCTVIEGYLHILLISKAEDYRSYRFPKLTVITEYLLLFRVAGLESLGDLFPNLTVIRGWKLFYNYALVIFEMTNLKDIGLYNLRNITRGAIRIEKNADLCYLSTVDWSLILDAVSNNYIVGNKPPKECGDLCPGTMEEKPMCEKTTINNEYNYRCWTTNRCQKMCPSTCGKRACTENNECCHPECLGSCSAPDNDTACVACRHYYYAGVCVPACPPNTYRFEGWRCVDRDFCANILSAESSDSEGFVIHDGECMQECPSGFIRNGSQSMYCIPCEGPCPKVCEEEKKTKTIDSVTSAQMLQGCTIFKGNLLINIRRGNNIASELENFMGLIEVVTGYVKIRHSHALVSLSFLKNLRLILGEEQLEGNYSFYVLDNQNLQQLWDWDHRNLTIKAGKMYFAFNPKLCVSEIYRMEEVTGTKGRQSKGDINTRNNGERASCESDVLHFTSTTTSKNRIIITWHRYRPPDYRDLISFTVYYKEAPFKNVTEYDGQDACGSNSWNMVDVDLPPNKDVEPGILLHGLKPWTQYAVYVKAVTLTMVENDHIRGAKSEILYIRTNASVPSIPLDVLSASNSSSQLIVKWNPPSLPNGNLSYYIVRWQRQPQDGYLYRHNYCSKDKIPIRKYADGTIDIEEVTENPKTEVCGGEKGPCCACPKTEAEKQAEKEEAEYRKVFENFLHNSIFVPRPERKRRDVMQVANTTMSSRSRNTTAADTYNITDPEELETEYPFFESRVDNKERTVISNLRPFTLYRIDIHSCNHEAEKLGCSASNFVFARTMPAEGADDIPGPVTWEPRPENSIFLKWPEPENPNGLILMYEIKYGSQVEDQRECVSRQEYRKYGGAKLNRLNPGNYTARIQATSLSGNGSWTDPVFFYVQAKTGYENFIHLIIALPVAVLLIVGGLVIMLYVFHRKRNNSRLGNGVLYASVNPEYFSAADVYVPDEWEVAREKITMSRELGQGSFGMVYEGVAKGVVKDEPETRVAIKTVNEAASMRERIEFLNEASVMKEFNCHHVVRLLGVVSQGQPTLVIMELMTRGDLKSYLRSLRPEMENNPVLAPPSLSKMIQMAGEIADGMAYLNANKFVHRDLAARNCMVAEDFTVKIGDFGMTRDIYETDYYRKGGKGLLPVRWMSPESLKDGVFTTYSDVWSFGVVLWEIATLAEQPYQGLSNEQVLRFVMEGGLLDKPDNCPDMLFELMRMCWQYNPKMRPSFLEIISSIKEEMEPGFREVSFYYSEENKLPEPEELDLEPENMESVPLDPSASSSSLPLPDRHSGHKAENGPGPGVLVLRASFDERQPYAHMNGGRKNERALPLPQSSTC
# PROCEDURE_SUMMARY: ADP-Glo kinase inhibition assay, IGF1R
Answer with a number only, understood to be in µM.

Completed entries (count: 2):
>>> reading("CCc1cc2c(cc1N1CCC(N3CCOCC3)CC1)C(C)(C)c1[nH]c3cc(C#N)ccc3c1C2=O")
1.01
>>> reading("COc1cc(Nc2ncc(F)c(Nc3ccc4c(n3)N(COP(=O)(O)O)C(=O)C(C)(C)O4)n2)cc(OC)c1OC")
0.638

Report IC50 for Nc1cncc(-c2cn3ccnc3c(Nc3ccc(N4CCN(C5COC5)CC4)cc3)n2)n1 please.
2.43

Report IC50 for COc1ccc(Nc2nc(-c3ccc4c(CN5CC(O)C5)c[nH]c4c3)cnc2C(N)=O)cc1OC please.
0.9

Report IC50 for c1cn2cc(-c3ccc4cn[nH]c4c3)nc(Nc3ccc(N4CCOCC4)cc3)c2n1 please.
0.813

====

# SYSTEM: FGFR3 (Homo sapiens, UniProt P22607)
# Sequence (P22607 23-806): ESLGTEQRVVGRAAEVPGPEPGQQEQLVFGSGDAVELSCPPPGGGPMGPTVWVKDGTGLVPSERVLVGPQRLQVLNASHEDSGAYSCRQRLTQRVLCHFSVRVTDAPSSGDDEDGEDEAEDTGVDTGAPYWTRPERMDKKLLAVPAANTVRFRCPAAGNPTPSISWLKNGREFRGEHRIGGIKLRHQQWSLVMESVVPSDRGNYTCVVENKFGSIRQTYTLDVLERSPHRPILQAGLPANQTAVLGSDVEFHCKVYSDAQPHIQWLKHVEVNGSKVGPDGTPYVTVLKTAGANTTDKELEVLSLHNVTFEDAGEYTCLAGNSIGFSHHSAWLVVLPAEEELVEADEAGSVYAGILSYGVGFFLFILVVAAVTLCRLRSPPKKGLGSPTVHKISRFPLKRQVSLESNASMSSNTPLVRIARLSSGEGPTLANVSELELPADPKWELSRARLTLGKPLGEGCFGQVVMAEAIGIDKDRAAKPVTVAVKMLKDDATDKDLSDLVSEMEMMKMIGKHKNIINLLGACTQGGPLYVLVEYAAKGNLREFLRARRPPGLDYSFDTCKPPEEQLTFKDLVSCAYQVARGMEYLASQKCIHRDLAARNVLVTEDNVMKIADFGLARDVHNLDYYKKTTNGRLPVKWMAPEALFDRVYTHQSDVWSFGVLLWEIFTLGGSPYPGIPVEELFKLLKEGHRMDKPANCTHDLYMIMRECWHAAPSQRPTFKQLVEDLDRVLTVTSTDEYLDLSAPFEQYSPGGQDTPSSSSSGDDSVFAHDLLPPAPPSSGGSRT
# PROCEDURE_SUMMARY: ADP-Glo kinase inhibition assay, FGFR3
ENDPOINT: IC50 (nM)
Answer with a number only, understood to be in nM.

Completed entries (count: 4):
>>> reading("Cn1cc(-c2cc3c(N4CCN(c5ncc([C@@](C)(N)c6ccc(F)cc6)cn5)CC4)ncnn3c2)cn1")
1020
>>> reading("Cc1cc(Nc2ncnc3ccc(NC4=NC(C)(C)CO4)cc23)ccc1Oc1ccn2ncnc2c1")
66500
>>> reading("c1cn2cc(-c3ccc4cn[nH]c4c3)nc(Nc3ccc(N4CCOCC4)cc3)c2n1")
9900
>>> reading("O=C(Nc1cnn2ccc(N3CCC[C@@H]3c3cc(F)ccc3F)nc12)N1CC[C@H](O)C1")
1980

Moving on to the next molecule.
Report IC50 for COc1cc(Nc2ncc(F)c(Nc3ccc4c(n3)N(COP(=O)(O)O)C(=O)C(C)(C)O4)n2)cc(OC)c1OC please.
91.4

====

# SYSTEM: HGFR (Homo sapiens, UniProt P08581)
# Sequence (P08581 25-1390): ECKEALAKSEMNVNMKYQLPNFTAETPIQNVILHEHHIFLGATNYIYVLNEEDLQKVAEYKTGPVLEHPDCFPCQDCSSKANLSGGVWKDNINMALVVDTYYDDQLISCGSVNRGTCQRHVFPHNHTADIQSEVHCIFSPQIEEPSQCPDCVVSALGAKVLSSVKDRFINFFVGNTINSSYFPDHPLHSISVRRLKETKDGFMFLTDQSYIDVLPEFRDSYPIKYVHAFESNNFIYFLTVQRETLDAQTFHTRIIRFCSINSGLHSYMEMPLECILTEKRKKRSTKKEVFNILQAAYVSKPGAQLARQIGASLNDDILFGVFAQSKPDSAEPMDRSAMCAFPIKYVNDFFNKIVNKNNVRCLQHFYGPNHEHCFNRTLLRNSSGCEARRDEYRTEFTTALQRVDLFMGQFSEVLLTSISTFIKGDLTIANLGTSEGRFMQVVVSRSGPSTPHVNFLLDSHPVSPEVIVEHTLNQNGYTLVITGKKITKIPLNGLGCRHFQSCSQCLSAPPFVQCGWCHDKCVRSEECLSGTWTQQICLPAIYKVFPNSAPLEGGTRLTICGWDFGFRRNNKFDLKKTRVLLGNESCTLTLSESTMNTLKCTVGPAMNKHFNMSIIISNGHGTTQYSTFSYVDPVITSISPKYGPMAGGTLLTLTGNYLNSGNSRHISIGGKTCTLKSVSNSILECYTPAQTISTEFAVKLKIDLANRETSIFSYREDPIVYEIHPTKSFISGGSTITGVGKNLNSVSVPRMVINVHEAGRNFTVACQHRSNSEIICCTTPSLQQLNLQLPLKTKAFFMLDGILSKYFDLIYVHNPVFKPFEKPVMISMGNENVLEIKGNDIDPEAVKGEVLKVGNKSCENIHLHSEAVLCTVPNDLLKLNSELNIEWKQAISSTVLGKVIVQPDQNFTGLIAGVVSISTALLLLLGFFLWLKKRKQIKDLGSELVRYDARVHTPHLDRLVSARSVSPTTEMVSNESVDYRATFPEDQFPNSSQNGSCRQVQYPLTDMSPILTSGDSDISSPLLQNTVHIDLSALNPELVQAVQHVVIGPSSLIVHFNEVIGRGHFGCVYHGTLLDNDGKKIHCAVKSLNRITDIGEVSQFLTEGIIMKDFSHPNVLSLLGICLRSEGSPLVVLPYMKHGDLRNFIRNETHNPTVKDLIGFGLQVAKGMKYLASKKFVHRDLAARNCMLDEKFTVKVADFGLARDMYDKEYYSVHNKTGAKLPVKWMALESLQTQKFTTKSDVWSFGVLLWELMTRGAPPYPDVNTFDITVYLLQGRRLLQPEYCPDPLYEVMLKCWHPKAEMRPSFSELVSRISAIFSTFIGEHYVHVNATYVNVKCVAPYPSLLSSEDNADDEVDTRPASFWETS
pIC50: −log10 of the molar value.
ENDPOINT: pIC50

Completed entries (count: 2):
>>> reading("COc1ccc(Nc2nc(-c3ccc4c(CN5CC(O)C5)c[nH]c4c3)cnc2C(N)=O)cc1OC")
"< 4.40"
>>> reading("Nc1cncc(-c2cn3ccnc3c(Nc3ccc(N4CCN(C5COC5)CC4)cc3)n2)n1")
"< 4.00"

Moving on to the next molecule.
Report pIC50 for COc1ccc(Nc2nc(-c3ccc4c(CN5CC(N)C5)c[nH]c4c3)cnc2C(N)=O)cc1OC please.
< 4.70

====

VEGFR (Homo sapiens) log10 of IC50 data
Sequence (P35916 whole entry): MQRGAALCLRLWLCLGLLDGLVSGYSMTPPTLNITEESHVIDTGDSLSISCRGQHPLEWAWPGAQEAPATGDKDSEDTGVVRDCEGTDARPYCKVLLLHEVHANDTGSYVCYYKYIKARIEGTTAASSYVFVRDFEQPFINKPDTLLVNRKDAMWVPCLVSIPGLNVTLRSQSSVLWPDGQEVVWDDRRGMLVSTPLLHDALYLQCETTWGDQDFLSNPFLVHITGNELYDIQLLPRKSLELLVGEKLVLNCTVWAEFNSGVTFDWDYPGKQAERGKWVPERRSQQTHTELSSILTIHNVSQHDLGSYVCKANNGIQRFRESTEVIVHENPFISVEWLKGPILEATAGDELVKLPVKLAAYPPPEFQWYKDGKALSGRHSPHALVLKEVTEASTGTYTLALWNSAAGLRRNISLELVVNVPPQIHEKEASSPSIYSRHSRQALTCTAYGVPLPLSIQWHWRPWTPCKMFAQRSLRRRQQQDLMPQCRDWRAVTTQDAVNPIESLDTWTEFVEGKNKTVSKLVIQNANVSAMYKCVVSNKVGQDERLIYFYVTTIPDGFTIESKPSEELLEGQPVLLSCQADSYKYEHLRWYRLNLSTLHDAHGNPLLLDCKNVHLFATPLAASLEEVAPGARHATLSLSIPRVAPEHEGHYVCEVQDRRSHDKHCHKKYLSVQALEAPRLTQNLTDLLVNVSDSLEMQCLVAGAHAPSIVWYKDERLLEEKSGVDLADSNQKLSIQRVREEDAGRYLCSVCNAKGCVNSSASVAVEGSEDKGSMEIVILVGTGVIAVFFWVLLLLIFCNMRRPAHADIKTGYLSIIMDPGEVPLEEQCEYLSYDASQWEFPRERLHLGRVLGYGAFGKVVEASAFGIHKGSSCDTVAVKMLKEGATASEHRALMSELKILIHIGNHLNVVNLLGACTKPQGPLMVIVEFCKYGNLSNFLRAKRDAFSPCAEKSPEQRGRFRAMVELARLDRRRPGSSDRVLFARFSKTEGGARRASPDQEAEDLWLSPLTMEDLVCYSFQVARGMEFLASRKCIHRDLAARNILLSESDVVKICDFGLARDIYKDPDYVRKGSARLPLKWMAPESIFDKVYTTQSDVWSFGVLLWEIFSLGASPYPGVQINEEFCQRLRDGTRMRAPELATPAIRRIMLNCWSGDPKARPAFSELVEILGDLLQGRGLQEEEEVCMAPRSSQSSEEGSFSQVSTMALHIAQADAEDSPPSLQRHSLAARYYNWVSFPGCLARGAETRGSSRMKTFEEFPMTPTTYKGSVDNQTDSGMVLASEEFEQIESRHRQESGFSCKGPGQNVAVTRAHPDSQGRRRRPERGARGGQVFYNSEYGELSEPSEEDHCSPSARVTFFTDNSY
Hello, just confirming the data are log10 of IC50 with units of nM.

Completed entries (count: 4):
>>> reading("Cc1cc(Nc2ncnc3ccc(NC4=NC(C)(C)CO4)cc23)ccc1Oc1ccn2ncnc2c1")
3.29
>>> reading("Nc1cncc(-c2cn3ccnc3c(Nc3ccc(N4CCN(C5COC5)CC4)cc3)n2)n1")
2.89
>>> reading("c1cn2cc(-c3ccc4cn[nH]c4c3)nc(Nc3ccc(N4CCOCC4)cc3)c2n1")
2.39
>>> reading("Cn1cc(-c2nc(N[C@@H]3CCCC[C@@H]3N)c(F)c3c2C(=O)NC3)cn1")
2.18

Moving on to the next compound.
Notebook: pull reported log10 of IC50 for VEGFR (Homo sapiens), entry O=C(Nc1cnn2ccc(N3CCC[C@@H]3c3cc(F)ccc3F)nc12)N1CC[C@H](O)C1
4.29
